// data source = patent US11278525B1

Molecular target: SIRT6 (Homo sapiens, UniProt Q8N6T7)
Sequence (Q8N6T7 whole entry): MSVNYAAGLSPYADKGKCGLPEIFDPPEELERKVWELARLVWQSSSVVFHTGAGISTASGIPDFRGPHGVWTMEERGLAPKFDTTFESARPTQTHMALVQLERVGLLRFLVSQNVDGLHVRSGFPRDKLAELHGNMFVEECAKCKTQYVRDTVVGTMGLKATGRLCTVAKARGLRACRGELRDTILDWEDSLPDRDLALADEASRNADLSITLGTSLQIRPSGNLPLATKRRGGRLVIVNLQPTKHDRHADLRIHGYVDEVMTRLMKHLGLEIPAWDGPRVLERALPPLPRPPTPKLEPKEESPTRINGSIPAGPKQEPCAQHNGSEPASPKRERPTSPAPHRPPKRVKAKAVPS
Test: SIRT6 enzymatic activity assay with fluorophore (AMC)-labeled Lysin-myristoylated histone H3 peptide (de-myristoylation, trypsin release)
Type: biochemical
Set-up: six-histidine tag; made in house; host or cells: Escherichia coli BL21
Conditions: compound 100 uM; percentage of signal increase relative to control wells; Tables 1-2
test readout: % activity Max. conc. 100 uM
The reply should consist of the numeric value with the unit placed after it.

These solved cases illustrate the format of a correct answer.
Cc1noc(-c2cccc(OC3CN(C(=O)c4cccc5[nH]ccc45)C3)c2)n1    47%
N#Cc1c(N)oc(C2=CC=CC2)c1-c1ccco1    48%
CN(C)CCCN(C(=O)CCOc1ccccc1)c1nc2c(F)cccc2s1    252%
Cc1nc2sc(-c3nc4ccccc4[nH]3)c(N)c2c(C)c1Cl    59%
COCCNc1oc2c(c1-c1ccc(C)cc1)c(=O)oc1c(C)cccc12    111%
C=C(Oc1ccc2cnccc2c1)c1sc2ccccc2c1N    324%
CCN1CCCC1CNC(=O)C1CCN(c2cc(C)nc3c(-c4ccc(Cl)cc4)c(C)nn23)CC1 (stereo not drawn)    29%
CC1=CC(C)(C)Nc2ccc(OC(=O)c3cccs3)cc21    54%
C=C(CN1C(=C)C(c2nc(-c3ccccc3)no2)=C(C)C=C1C)NCCc1ccc(CC)c(CC)c1    73%
C=C1Cc2ccc(C)cc2C2=C1C(c1ccc(F)cc1)=C(NCCOC)C2    246%

### Prompt What measured % activity Max. conc. 100 uM goes with C=C(OC(C)CC)C1=C(C)NC2=C(C(=C)C(C(=C)OC)C(C)C2)C1c1ccc(N(CC)CC)cc1 (stereo not drawn) ?
### Response 61%

### Prompt What measured % activity Max. conc. 100 uM goes with O=C(Nc1ccc2nncn2c1)c1cccc(Cl)c1 ?
### Response 51%

### Prompt What measured % activity Max. conc. 100 uM goes with C=S(=C)(c1cc(Cl)ccc1Cl)n1c(/C=C/c2ccc(SC)cc2)nc2ccccc21 ?
### Response 36%

### Prompt What measured % activity Max. conc. 100 uM goes with C=C(CS)Nc1ccc(CCCCC)cc1 ?
### Response 48%

### Prompt What measured % activity Max. conc. 100 uM goes with O=C(NCc1cccc(Cl)c1)c1noc2c1CSc1ccccc1-2 ?
### Response 137%

### Prompt What measured % activity Max. conc. 100 uM goes with C=C1Oc2ccc(C)cc2-c2oc(NCCOC)c(-c3ccc(OCC)cc3)c21 ?
### Response 226%

### Prompt What measured % activity Max. conc. 100 uM goes with CC(C)(C)c1ccc(C(=O)Nc2ccc3nnc(C4CCC4)n3c2)cc1 ?
### Response 87%

### Prompt What measured % activity Max. conc. 100 uM goes with C=C(Cc1ccc2c(c1)C(C)=CC(C)(C)N2)Cc1cccc2ccccc12 ?
### Response 56%

* * *

Target: SIRT6 (Homo sapiens, UniProt Q8N6T7)
Assay: SIRT6 enzymatic activity assay with fluorophore (AMC)-labeled Lysin-myristoylated histone H3 peptide (de-myristoylation, trypsin release)
Type: biochemical
Design: six-histidine tag; made in house; host or cells: Escherichia coli BL21
Settings: compound 100 uM; percentage of signal increase relative to control wells; Tables 1-2
Listed here: items and their measured % activity Max. conc. 100 uM.
Note: unit % is implicit; provide only the numeric part.

These solved cases illustrate the format of a correct answer.
C=C(Cn1c(C)cc(C)c(C2=NC(c3ccccc3)=NC2)c1=O)NC1CCCCC1 [G744-0080]    221
CCC(=O)Nc1ccc(-c2cc(C(=O)NCCCN3CCCCCC3)c3ccccc3n2)cc1 [L036-0162]    92
Cc1ccccc1CSc1ncc(Sc2ccccc2)c(C(=O)NCc2ccccc2)n1 [D506-0127]    65
Cc1cc(Nc2ccc(NC(=O)Nc3ccc4c(c3)CCCO4)cc2)nc(NC2CCCCC2)n1 [D577-0290]    22
CC(=O)Nc1ccc(-c2cc(C(=O)NCCN3CCN(C)CC3)c3cc(C)ccc3n2)cc1 [L036-2289]    119

### Prompt What measured % activity Max. conc. 100 uM goes with COc1cc(NC(=O)c2csc(-c3cn(C)c4ncccc34)n2)cc(OC)c1 [P613-0273] ?
### Response 37

### Prompt What measured % activity Max. conc. 100 uM goes with Cn1c(-c2ccc3[nH]c(-c4ccc(N)cc4)nc3c2)nc2cc(N)ccc21 [6843-3168] ?
### Response 162

### Prompt What measured % activity Max. conc. 100 uM goes with Cc1ccc(NC(=O)c2nnc(-c3ccc(NC(=O)c4cccs4)cc3)s2)cc1 [F498-0132] ?
### Response 16
